The measurements presented in this section are drawn from patent US20230117034A1.

- Tested on: CAL-120, human breast adenocarcinoma cells
- Procedure text: Proliferation assay CAL-120 (crystal violet, 4 days)
- Type: cell-based
- Conditions: Homo sapiens, CAL-120, 96 h, CAL-120 cells, median, read-out: Prolif-CAL-120, IC50-[mol/l] (median)
- Procedure: Human tumour cells were originally obtained from the American Type Culture Collection (ATCC), or from the Deutsche Sammlung von Mikroorganismen und Zellkulturen (DSMZ, German Collection of Microorganisms and Cell Cultures). […] Cell proliferation was determined by staining the cells with crystal violet: the cells were fixed by adding 20 microL/measuring point of an 11% glutaric aldehyde solution for 15 minutes at room temperature. […] The extinction was determined by photometry at a wavelength of 595 nm. […]
Under this convention, t denotes IC50 strictly below 40 nM and f denotes IC50 at or above 40 nM.

Answered cases to consult:
> print(dat)
                               given.smiles  label.value
1  Brc1cnn2c(NCc3nc4ccccc4[nH]3)nc(OC3CCOCC3)nc12            f
2  Brc1cnn2c(NCc3nc4ccccc4[nH]3)nc(N3CC4CCC(C3)O4)nc12            t
3  Brc1cnn2c(NCc3nc4ccccc4[nH]3)nc(N3CCC3)nc12            f
4  CN(CC(C)(C)O)c1nc(NCc2nc3cc(F)c(F)cc3[nH]2)n2ncc(Br)c2n1            t
5  Fc1cc(-c2nnc(CNc3nc(N4CCOCC4)nc4c(Br)cnn34)[nH]2)cc(F)c1F            f
6  Cc1ccc2[nH]c(CNc3nc(N4C[C@H]5C[C@@H]4CO5)nc4c(C5CC5)cnn34)nc2c1            t
7  Clc1ccccc1-c1nnc(CNc2nc(N3CCOCC3)nc3c(Br)cnn23)[nH]1            f
8  CCNc1nc(NCc2nc3ccccc3[nH]2)n2ncc(Br)c2n1            f

[Q] In the record for Fc1ccc2[nH]c(CNc3nc(N4CCOCC4)nc4c(C5CCC5)cnn34)nc2c1F , is IC50 less than 40 nM?
[A] t

[Q] In the record for Fc1cccc2[nH]c(CNc3nc(N4CCN5CCC4CC5)nc4c(C(F)(F)F)cnn34)nc12 , is IC50 less than 40 nM?
[A] t

* * *

- Measured target: CDK2/CycE (Homo sapiens)
- Procedure text: CDK2/CycE kinase assay (TR-FRET, 2 mM ATP)
- Conditions: 2 mM ATP (high ATP); median; read-out: CDK2/CyclinE, 2 mM ATP (high ATP), IC50 (median)
Listed here are molecules together with their documented pIC50.
Remember, pIC50 is on a log scale: it is -log10 of the molar concentration.

> print(dat)
                                   molecule  reading
1  Brc1cnn2c(NCc3nc4ccccc4[nH]3)nc(NCC3CC3)nc12 [Example 284]     5.70
2  CN1CCN(c2nc(NCc3nnc(-c4ccccc4)[nH]3)n3ncc(Br)c3n2)CC1=O [Example 121]     5.66

Now take the following molecule into account.
[Q] Please look at this molecule and report its pIC50: Brc1cnn2c(NCc3nnc(-c4ccccc4)[nH]3)nc(N3CCCCC3)nc12 [Example 49]
[A] 5.64

* * *

- Measured target: CYCLIN K (nuclear staining in CAL-120 cells) (Homo sapiens)
- Construct: endogenous in cells; host or cells: CAL-120 human breast cancer cells (DSMZ ACC 459)
- Sequence (O75909 whole entry): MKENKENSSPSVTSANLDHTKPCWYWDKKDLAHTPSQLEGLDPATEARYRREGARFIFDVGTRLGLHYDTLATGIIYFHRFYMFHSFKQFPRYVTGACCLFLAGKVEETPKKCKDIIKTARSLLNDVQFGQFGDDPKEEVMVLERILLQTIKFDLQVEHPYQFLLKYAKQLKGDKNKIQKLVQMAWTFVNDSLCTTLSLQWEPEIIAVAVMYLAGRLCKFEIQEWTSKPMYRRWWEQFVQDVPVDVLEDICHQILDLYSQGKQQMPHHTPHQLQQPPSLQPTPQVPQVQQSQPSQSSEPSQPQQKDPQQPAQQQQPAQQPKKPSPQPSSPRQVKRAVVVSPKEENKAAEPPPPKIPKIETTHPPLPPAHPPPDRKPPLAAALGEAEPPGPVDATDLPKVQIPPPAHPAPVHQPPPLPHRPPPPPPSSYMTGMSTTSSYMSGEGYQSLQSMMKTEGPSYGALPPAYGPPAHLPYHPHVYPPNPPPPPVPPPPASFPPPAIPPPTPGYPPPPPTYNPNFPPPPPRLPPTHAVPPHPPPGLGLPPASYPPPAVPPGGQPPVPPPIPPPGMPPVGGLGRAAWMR
- Sequence (Q9NYV4 whole entry partner): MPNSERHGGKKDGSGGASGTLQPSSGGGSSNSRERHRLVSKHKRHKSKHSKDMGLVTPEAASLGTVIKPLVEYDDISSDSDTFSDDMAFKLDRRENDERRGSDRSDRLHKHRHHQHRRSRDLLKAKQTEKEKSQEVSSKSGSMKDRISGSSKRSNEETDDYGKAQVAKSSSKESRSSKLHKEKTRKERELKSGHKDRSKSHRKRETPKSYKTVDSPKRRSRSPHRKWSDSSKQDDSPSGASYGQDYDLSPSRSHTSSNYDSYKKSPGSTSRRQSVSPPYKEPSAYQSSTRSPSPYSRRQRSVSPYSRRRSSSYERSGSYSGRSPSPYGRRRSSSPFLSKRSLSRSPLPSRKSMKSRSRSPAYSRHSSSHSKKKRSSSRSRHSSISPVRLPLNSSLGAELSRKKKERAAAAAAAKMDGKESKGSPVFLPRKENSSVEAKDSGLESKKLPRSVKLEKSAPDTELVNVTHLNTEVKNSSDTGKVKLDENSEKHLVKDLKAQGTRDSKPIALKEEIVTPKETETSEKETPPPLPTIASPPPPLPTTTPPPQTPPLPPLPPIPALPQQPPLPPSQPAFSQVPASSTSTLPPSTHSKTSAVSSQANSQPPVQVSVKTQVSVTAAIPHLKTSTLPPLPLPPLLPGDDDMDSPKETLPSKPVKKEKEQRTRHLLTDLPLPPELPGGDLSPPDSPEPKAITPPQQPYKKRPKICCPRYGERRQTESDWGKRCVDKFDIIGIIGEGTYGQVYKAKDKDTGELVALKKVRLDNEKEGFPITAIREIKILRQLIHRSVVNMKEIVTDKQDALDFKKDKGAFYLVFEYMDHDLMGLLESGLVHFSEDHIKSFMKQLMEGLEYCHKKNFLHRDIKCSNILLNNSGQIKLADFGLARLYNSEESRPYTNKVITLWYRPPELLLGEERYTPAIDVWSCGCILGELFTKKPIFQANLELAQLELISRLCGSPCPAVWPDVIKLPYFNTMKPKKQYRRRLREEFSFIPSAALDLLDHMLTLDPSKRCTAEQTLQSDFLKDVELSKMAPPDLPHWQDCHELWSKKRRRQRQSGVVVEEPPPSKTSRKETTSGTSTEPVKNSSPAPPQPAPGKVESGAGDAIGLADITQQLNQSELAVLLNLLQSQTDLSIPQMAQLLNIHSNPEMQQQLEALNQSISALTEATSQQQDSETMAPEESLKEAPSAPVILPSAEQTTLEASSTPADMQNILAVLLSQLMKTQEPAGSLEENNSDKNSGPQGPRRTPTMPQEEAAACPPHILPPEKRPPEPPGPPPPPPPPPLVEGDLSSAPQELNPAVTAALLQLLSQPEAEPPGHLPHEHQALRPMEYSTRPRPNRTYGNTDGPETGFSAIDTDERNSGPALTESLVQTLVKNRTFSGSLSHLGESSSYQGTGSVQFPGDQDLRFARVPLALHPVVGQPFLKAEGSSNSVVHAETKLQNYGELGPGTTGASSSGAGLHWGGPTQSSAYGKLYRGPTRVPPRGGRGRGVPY
- Procedure text: CYCLIN K nuclear protein level: immunofluorescence high content analysis (CAL-120)
- Type: cell-based
- Conditions: 24 h, 50% reduction of nuclear CCNK staining intensity, median, read-out: CYCLIN K degradation IF, DC50-[mol/l] (median)
Under this convention, Y denotes DC50 strictly below 2 nM and N denotes DC50 at or above 2 nM.

> print(dat)
                               given.smiles                           measured.target  label.value
1  Cn1cc(-c2cnn3c(NCc4nc5cc(Cl)c(Cl)cc5[nH]4)nc(N4CCOCC4)nc23)cn1  CYCLIN K (nuclear staining in CAL-120 cells) (Homo sapiens)            N

[Q] In the record for CC1(C)CN(c2nc(NCc3nc4ccccc4[nH]3)n3ncc(C4CC4)c3n2)CCO1 , is DC50 less than 2 nM?
[A] N

[Q] In the record for Fc1cc2nc(CNc3nc(N4CC5CCC(C4)N5)nc4c(Br)cnn34)[nH]c2cc1Cl , is DC50 less than 2 nM?
[A] Y

[Q] In the record for Fc1cc2nc(CNc3nc(N4CC5CCC(C4)N5)nc4c(C5CC5)cnn34)[nH]c2cc1F , is DC50 less than 2 nM?
[A] Y

* * *

- Measured target: CDK9/CycT1 (Homo sapiens, UniProt P50750)
- Construct: Recombinant full-length His-tagged human CDK9 and CycT1; purchased Life Technologies PV4131; host or cells: insect cells
- Sequence (P50750 whole entry): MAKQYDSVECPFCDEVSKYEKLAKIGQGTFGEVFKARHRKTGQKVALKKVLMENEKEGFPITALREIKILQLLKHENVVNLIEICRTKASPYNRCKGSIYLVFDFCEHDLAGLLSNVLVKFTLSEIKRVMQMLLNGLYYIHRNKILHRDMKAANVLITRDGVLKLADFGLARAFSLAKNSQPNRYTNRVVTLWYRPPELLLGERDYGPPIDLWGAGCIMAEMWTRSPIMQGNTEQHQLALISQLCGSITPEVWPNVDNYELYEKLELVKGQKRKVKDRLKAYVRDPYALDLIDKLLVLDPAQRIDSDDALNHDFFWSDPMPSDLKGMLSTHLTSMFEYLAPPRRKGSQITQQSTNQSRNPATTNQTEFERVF
- Sequence (O60563 whole entry partner): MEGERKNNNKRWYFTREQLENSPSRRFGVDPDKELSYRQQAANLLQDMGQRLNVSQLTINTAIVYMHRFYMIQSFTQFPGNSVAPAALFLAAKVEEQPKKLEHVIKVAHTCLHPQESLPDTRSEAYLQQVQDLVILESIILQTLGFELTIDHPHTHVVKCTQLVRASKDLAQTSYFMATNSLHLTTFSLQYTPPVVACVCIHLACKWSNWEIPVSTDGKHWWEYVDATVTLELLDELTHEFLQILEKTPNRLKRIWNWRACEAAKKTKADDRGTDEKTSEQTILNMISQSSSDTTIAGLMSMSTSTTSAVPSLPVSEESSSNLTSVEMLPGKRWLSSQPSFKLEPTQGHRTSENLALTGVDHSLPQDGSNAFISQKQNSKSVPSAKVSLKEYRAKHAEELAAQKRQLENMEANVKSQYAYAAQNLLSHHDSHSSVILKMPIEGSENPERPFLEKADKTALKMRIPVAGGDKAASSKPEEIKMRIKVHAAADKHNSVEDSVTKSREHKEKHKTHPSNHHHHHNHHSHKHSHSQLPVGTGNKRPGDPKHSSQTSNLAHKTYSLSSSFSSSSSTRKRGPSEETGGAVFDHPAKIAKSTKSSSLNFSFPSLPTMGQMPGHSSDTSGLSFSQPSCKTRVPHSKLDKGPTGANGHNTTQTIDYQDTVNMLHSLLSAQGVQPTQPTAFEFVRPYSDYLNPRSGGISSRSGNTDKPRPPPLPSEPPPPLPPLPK
- Procedure text: CDK9/CycT1 high ATP kinase assay (TR-FRET, 2 mM ATP)
- Type: biochemical
- Conditions: 2 mM ATP (high ATP); median; read-out: CDK9/CyclinT1, 2 mM ATP (high ATP), IC50 (median)
Listed here are molecules together with their documented IC50.

// below: answered molecules
> print(dat)
                                   molecule  measurement.label    reading
1  Brc1cnn2c(NCc3nc4ccccc4[nH]3)nc(N3CCNC4(CC4)C3)nc12 [Example 176]               IC50    > 20 µM
2  Fc1ccc2[nH]c(CNc3nc(N4CCOCC4)nc4c(-c5nccs5)cnn34)nc2c1F [Example 413]               IC50    > 20 µM
3  Brc1cnn2c(NCc3nc4ccccc4[nH]3)nc(N3C[C@H]4CC[C@@H]3CO4)nc12 (single isomer, unassigned; enantiomer 2) [Example 391]               IC50    > 20 µM
4  c1ccc2[nH]c(CNc3nc(N4CCOCC4)nc4c(-c5ccncc5)cnn34)nc2c1 [Example 111]               IC50  > 1.63 µM

Now take the following molecule into account.
[Q] Please look at this molecule and report its IC50: Cc1ccc2[nH]c(CNc3nc(N4CCN(C)CC4)nc4c(Br)cnn34)nc2c1 [Example 158]
[A] > 20 µM

* * *

- Test system: CAL-120, human breast adenocarcinoma cells
- Procedure text: Proliferation assay CAL-120 (crystal violet, 4 days)
- Format: cell-based
- Conditions: Homo sapiens, CAL-120, 96 h, CAL-120 cells, median, read-out: Prolif-CAL-120, IC50-[mol/l] (median)
Listed here are molecules together with their documented log10 IC50.
Log scale reminder: IC50 in nM, then log10 taken.

// below: answered molecules
> print(dat)
                                   molecule  measurement.label  reading
1  Cc1cc2nc(CNc3nc(N4CCOCC4)nc4c(C5CC5)cnn34)[nH]c2cc1C         log10 IC50     0.63
2  CN1CCN(c2nc(NCc3nc4ccccc4[nH]3)n3ncc(Br)c3n2)C(CO)C1 (stereo not drawn) [Example 155]         log10 IC50     1.88
3  OC[C@@H]1CCCCN1c1nc(NCc2nc3ccccc3[nH]2)n2ncc(Br)c2n1         log10 IC50     1.10
4  Brc1cnn2c(NCc3nnc(-c4ccccc4)[nH]3)nc(N3C[C@H]4C[C@@H]3CO4)nc12         log10 IC50     1.47
5  O[C@H]1CCN(c2nc(NCc3nc4ccccc4[nH]3)n3ncc(Br)c3n2)C1         log10 IC50     1.76

[Q] Quote log10 IC50 with test system CAL-120, human breast adenocarcinoma cells for CN1CCN(c2nc(NCc3nc4c(F)cccc4[nH]3)n3ncc(C(F)(F)F)c3n2)CC1
[A] 0.95

[Q] Quote log10 IC50 with test system CAL-120, human breast adenocarcinoma cells for Fc1cc2nc(CNc3nc(N4CCOCC4)nc4c(C5CC5)cnn34)[nH]c2cc1F
[A] 0.45

[Q] Quote log10 IC50 with test system CAL-120, human breast adenocarcinoma cells for Cn1cc(-c2cnn3c(NCc4nc5c(F)c(F)ccc5[nH]4)nc(N4CCOCC4)nc23)cn1
[A] 1.81

[Q] Quote log10 IC50 with test system CAL-120, human breast adenocarcinoma cells for N[C@@H]1[C@@H]2C[C@H]1CN(c1nc(NCc3nc4ccccc4[nH]3)n3ncc(Br)c3n1)C2
[A] 0.49

[Q] Quote log10 IC50 with test system CAL-120, human breast adenocarcinoma cells for Brc1cnn2c(NCc3nc4ccccc4[nH]3)nc(N3C[C@H]4CNC[C@H]4C3)nc12
[A] 1.42

[Q] Quote log10 IC50 with test system CAL-120, human breast adenocarcinoma cells for Clc1cccc(-c2cnn3c(NCc4nc5ccccc5[nH]4)nc(N4CCOCC4)nc23)c1
[A] 2.27

[Q] Quote log10 IC50 with test system CAL-120, human breast adenocarcinoma cells for Fc1ccc2[nH]c(CNc3nc(N4CCOCC4)nc4c(-c5cnn(C(F)F)c5)cnn34)nc2c1F
[A] 0.84

[Q] Quote log10 IC50 with test system CAL-120, human breast adenocarcinoma cells for Fc1ccc2[nH]c(CNc3nc(N4CCOCC4)nc4c(C(F)(F)F)cnn34)nc2c1
[A] 0.65
